B1: Formin-binding protein 4, residues 593 to 636; numbered along this chain, Q8N3X1 (parent)
chain: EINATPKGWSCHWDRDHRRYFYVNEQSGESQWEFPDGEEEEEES

- Variants of: B1
- METHOD: abundance fitness (aPCA) (normalised: wild type 0, dead -1); higher = more abundant; growth selection in yeast, the domain comes from the species named
- MEASUREMENT CONTEXT: Homo sapiens
READOUT KIND: abundance fitness

Sample answers from the record:
mutant=E43M readout_kind="abundance fitness" test_value=-0.148
mutant=E42I readout_kind="abundance fitness" test_value=-0.409
mutant=V23R readout_kind="abundance fitness" test_value=-0.039
mutant=E41N readout_kind="abundance fitness" test_value=-0.109
mutant=E40D readout_kind="abundance fitness" test_value=-0.158

Please look at the items below and tell me abundance fitness for each one, in order.
1. N3S
2. E29M
3. Y20N
4. D14H
5. R15S
6. W32K

Result:
[-0.072, -0.058, -0.059, -0.289, 0.019, -0.246]

Record abundance fitness per entry; entries follow.
1. R18C
2. R15H
3. E38V

Result:
1: -0.183; 2: 0.116; 3: 0.008

Please give abundance fitness for each item listed below.
1. A4L
2. E29P
3. E42K
4. S30K
5. R18G

Result:
1: 0.019; 2: -0.883; 3: 0.022; 4: 0.274; 5: 0.063

Hello, I would appreciate it if you could give abundance fitness for each entry below.
1. R18V
2. E33V
3. W32V

Result:
[-0.421, -0.456, -0.093]

Consider the following items and state reported abundance fitness for each.
1. D14K
2. N24R
3. S27R
4. G37C

Result:
1. -0.928
2. -0.359
3. -0.422
4. -0.088

I'm hoping you can list abundance fitness for every variant here, please.
1. G8C
2. T5H
3. E33I
4. S30E

Result:
1: -0.471; 2: -0.534; 3: -0.284; 4: -0.04

Lab note: each variant below needs its abundance fitness filled in.
1. N3G
2. D14S
3. V23P
4. V23A
5. E41P
6. H12R
7. Y22V
8. T5V

Result:
1. -0.098
2. -0.141
3. -0.736
4. -0.347
5. 0.031
6. -0.17
7. -0.692
8. 0.065

Please give abundance fitness for each item listed below.
1. G37Q
2. Y20P

Result:
1. -0.089
2. -0.143
